Data origin: ChEMBL document CHEMBL5523757

Test system: HCT-116
assay_procedure: Antiproliferative activity against human HCT-116 cells assessed as inhibition of cell growth incubated for 48 hrs by CCK-8 assay
Format: functional, cell-based
protocol_conditions: hct-116

{"columns": ["molecule_smiles", "endpoint_unit", "IC50"],
 "data": [
  ["CCOC(=O)C[C@H]1CSC[C@]1(C(=O)OCC)n1cnc2c(Cl)nc(Cl)nc21", "µM", 4.16]
]}

---

Tested on: MCF7
assay_procedure: Antiproliferative activity against human MCF7 cells assessed as inhibition of cell growth incubated for 48 hrs by CCK-8 assay
Format: functional, cell-based
protocol_conditions: Homo sapiens, MCF7, 48 h
pIC50: −log10 of the molar value.

{"columns": ["molecule", "modifier", "pIC50"],
 "data": [
  ["CCOC(=O)C[C@H]1C[S+]([O-])C[C@]1(C(=O)OCC)n1cnc2c(Cl)nc(Cl)nc21 (stereo partly drawn)", "=", 4.59],
  ["CCOC(=O)C[C@H]1CSC[C@]1(C(=O)OCC)n1cnc2c(OCc3ccccc3)ncnc21 (racemic)", "=", 4.90],
  ["CCOC(=O)C[C@H]1CSC[C@]1(C(=O)OCC)n1cnc2cncnc21 (racemic)", "<", 4.30],
  ["CCOC(=O)C[C@H]1CSC[C@]1(C(=O)OCC)n1cnc2c(Cl)nc(F)nc21 (racemic)", "=", 4.64],
  ["CCOC(=O)C[C@@H]1CSC[C@]1(C(=O)OCC)n1cnc2c(N3CCCC3)ncnc21 (racemic)", "<", 4.30],
  ["CCOC(=O)C[C@@H]1CSC[C@]1(C(=O)OCC)n1cnc2c(N3CCCCC3)nc(Cl)nc21 (racemic)", "=", 4.47],
  ["CCOC(=O)C[C@@H]1CSC[C@]1(C(=O)OC(C)C)n1cnc2c(Cl)ncnc21 (racemic)", "=", 4.35],
  ["CCOC(=O)C[C@@H]1CSC[C@]1(C(=O)OCC)n1cnc2c(N3CCOCC3)ncnc21 (racemic)", "<", 4.30]
]}

---

Test system: MCF7
assay_procedure: Antiproliferative activity against human MCF7 cells assessed as inhibition of cell growth incubated for 48 hrs by CCK-8 assay
Assay type: functional, cell-based
protocol_conditions: Homo sapiens, MCF7, 48 h
pIC50: −log10 of the molar value.
Entries and their pIC50 values follow.
observed_property: pIC50

{"columns": ["molecule", "observed_value"],
 "data": [
  ["CCOC(=O)C[C@@H]1CSC[C@]1(C(=O)OCC)n1cnc2c(Br)ncnc21 (racemic)", "< 4.30"],
  ["CCOC(=O)C[C@@H]1CSC[C@]1(C(=O)OCC)n1cnc2c(OCc3ccccc3)ncnc21 (racemic)", "< 4.30"],
  ["CCOC(=O)C[C@@H]1CSC[C@]1(C(=O)OC)n1cnc2c(Cl)ncnc21 (racemic)", "< 4.30"],
  ["CCOC(=O)C[C@H]1CSC[C@]1(C(=O)OCC)n1cnc2c(OC)ncnc21 (racemic)", "< 4.30"],
  ["CCOC(=O)C[C@@H]1CSC[C@]1(C(=O)OCC)n1cnc2c(Cl)nc(F)nc21 (racemic)", 4.55],
  ["O=c1[nH]cc(F)c(=O)[nH]1", 4.93],
  ["CCOC(=O)C[C@@H]1CSC[C@]1(C(=O)OCC)n1cnc2cnc(Cl)nc21 (racemic)", "< 4.30"],
  ["CCOC(=O)C[C@H]1CSC[C@]1(C(=O)OCC)n1cnc2c(Br)ncnc21 (racemic)", 4.71],
  ["CCOC(=O)C[C@@H]1CSC[C@]1(C(=O)OCC)n1cnc2c(N(C)C)ncnc21 (racemic)", "< 4.30"]
]}
